# SYSTEM: SCL/E2.22F interaction (Homo sapiens, UniProt P15884+P17542)
# Construct: expressed in transfected cells; host or cells: Saccharomyces cerevisiae strain PRT480
# Sequence (P17542 whole entry): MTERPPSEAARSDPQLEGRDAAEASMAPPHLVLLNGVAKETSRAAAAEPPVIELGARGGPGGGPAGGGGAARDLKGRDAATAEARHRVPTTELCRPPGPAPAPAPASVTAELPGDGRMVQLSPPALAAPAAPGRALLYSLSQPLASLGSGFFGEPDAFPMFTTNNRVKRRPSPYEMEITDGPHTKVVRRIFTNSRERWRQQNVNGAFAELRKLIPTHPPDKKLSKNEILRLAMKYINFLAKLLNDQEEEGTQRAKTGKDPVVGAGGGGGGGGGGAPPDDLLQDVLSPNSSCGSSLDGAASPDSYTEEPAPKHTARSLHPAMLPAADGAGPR
# Sequence (P15884 whole entry): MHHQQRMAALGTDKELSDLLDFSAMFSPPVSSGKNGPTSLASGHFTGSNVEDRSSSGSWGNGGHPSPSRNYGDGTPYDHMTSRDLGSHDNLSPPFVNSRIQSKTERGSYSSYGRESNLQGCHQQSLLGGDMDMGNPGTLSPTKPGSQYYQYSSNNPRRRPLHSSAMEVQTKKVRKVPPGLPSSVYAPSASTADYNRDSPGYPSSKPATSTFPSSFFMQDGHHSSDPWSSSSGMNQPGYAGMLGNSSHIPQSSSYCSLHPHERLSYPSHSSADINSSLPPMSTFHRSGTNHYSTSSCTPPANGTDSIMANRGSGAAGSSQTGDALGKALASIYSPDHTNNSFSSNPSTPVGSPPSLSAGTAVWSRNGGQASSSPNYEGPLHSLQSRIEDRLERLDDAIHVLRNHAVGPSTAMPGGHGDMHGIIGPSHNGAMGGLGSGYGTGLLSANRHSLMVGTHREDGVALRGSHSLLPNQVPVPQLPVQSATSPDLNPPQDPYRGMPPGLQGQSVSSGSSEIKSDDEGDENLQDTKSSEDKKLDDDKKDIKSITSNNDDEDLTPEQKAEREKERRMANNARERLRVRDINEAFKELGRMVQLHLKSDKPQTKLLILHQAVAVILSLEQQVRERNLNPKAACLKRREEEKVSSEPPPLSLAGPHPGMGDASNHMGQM
# TEST_SUMMARY: specificity of blocking: two-hybrid in strain PRT480 expressing E2.22F and SCL; further: key: +: the interaction was blocked; −: the interaction was not blocked
# Type: cell-based
# PROTOCOL_CONDITIONS: yeast strain PRT480, specificity control
PARAMETER_MEASURED: Target interaction SCL/E2.22F blocked

>>> recorded_value("BGF 24: SCL/E47 peptide blocker; fusion peptide SEQ ID NO: 75, fragment-encoded SEQ ID NO: 77; T. maritima fragment (MGKPIPNPLLGLDSTQAMGAPPKKKRKVAEFRSDYKDDDDKLIKHHWVLSIITTASR)")
"−"
>>> recorded_value("BGF 13: SCL/E47 peptide blocker; fusion peptide SEQ ID NO: 71, fragment-encoded SEQ ID NO: 73; H. influenzae fragment (MGKPIPNPLLGLDSTQAMGAPPKKKRKVAEFGFCSNQMREM)")
"−"
>>> recorded_value("BGF 05: non-specific blocker clone; fusion peptide SEQ ID NO: 63, fragment-encoded SEQ ID NO: 65; H. influenzae fragment (MGKPIPNPLLGLDSTQAMGAPPKKKRKVAEFARTTTTRLINQSVVRKIWLYRDAR)")
"+"
>>> recorded_value("BGF 06: SCL/E47 peptide blocker; fusion peptide SEQ ID NO: 67, fragment-encoded SEQ ID NO: 69; A. aeolicus fragment (MGKPIPNPLLGLDSTQAMGAPPKKKRKVAEFRSDYKDDDDKAYHIIAVCFLIKVS)")
"−"
